# Test system: C. acnes strain C3
# assay remarks: Minimum inhibitory concentration (MIC) / compatibility of cosmetic excipients
# Assay type: cell-based, Cutibacterium acnes
# test context: % w/vol, incubated anaerobically 3 days at 37° C, growth scored visually
Classify as follows. Reported COMPATABILITY VALUE C3 [%] (MIC value) greater than or equal to 1%: 1. Reported COMPATABILITY VALUE C3 [%] (MIC value) below: 0.

# count of solved cases: 3
Req: Reported COMPATABILITY VALUE C3 [%] (MIC value) at or above 1%? CCCCCCC(O)CO (centres unmarked)
Resp: 0

Req: Try this molecule next: CCO
Resp: 1

Req: Try this molecule next: CC(CO)CO
Resp: 1

# next molecule below
Req: Reported COMPATABILITY VALUE C3 [%] (MIC value) at or above 1%? O=C(O)CC(O)(CC(=O)O)C(=O)O
Resp: 0
